Assignment: determine reported T/C for the given compounds.
Tested on: P388 leukemia ip, CD2F1 mice, survival T/C
Test: NCI In Vivo Anticancer Drug Screen. Data for tumor model P388 Leukemia (intraperitoneal) in CD2F1 (CDF1) mice
Conditions: endpoint: median survival time; dose: 100.0 mg/kg/injection; schedule: Q04DX002 (ip); vehicle: saline; higher = longer survival
Experimental: The antitumor activity of compounds was measured in mice bearing transplantable tumors. Survival or tumor size were measured and the results are expressed as the measurement made in the treated group (T) divided by the measurement made in the vehicle treated control group (C). The tumor model used in this assay is P388 Leukemia (intraperitoneal) in CD2F1 (CDF1) mice
Toxic doses and inconclusive results are not listed.

## Task What T/C value was documented for this compound, COc1cc2c(cc1O)C(C)Cc1cc3c(cc1N(C)CC2)OCO3 (stereo unspecified) ?
## Result 106 % of control

## Task Also need CN1CC2CCCCN2CC(Cc2ccccc2)([N+](=O)[O-])C1 (stereo unspecified) , thanks.
## Result 109 % of control

## Task Now try O=C(O)C1CCCCC12OCCO2 (stereo unspecified) .
## Result 102 % of control

## Task Same question, CC1=CC(OC2C=C(C)C(=O)O2)OC1=O (stereo unspecified) this time
## Result 100 % of control

## Task What would you report for `Nc1nc(Cl)cc2nsnc12` ?
## Result 97 % of control

## Task What do you have for `O=Nc1cc(S(=O)(=O)O)c2cccnc2c1O` ?
## Result 100 % of control
